// molecules with pKi on Carbonic anhydrase 4 (Bos taurus, UniProt Q95323), multi-source literature
SYSTEM UNDER TEST: Carbonic anhydrase 4 (Bos taurus, UniProt Q95323)
Sequence (Q95323 whole entry): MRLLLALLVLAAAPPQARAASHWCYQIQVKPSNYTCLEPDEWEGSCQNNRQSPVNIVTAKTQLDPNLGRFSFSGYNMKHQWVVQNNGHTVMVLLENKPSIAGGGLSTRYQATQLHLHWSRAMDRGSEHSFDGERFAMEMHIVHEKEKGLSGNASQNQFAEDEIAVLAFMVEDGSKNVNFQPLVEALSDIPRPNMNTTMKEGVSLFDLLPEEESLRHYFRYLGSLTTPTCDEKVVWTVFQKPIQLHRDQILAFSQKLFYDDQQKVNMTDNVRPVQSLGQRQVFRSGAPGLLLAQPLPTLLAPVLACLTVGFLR
pKi: −log10 of the molar value.
PARAMETER: pKi

Field: example entries. Status: answers known.
Under Carbonic anhydrase 4 (Bos taurus, UniProt Q95323): pKi value of `NS(=O)(=O)c1ccc(NS(=O)(=O)c2ccc(NC(=O)C(F)(F)C(F)(F)C(F)(F)C(F)(F)C(F)(F)C(F)(F)C(F)(F)C(F)(F)F)cc2)cc1` ? 7.60

Try `NS(=O)(=O)c1nc2ccc(NC(=O)CN(CCN(CC(=O)O)c3ccccc3O)c3ccccc3O)cc2s1` next. 7.89

Another molecule to check: `NS(=O)(=O)c1ccc(NC(=O)c2cccc(C(=O)O)n2)cc1` 6.52

Same again, this time with `COCCOC(=O)c1ccc(S(=O)(=O)Nc2nnc(S(N)(=O)=O)s2)cc1` 8.00

Now consider `NCC(=O)NCC(=O)Nc1ccc(S(=O)(=O)Nc2nnc(S(N)(=O)=O)s2)cc1` . 8.22

And then `NCC(=O)NCC(=O)Nc1ccc(S(N)(=O)=O)cc1Br` , what is it? 7.15

One more molecule: `NS(=O)(=O)c1ccc(NSC(=S)N2CCOCC2)c(Br)c1` 7.02

Okay, and `NS(=O)(=O)c1ccc(CNC(=O)CN(CCN(CC(=O)O)CC(=O)O)CC(=O)O)cc1` ? 7.08

a = Cn1nc(S(N)(=O)=O)s/c1=N/C(=O)C(F)(F)C(F)(F)C(F)(F)C(F)(F)C(F)(F)C(F)(F)C(F)(F)C(F)(F)F
b = NS(=O)(=O)c1ccccc1N1C(=O)c2cccnc2C1=O
Short answer wanted: higher pKi, a or b ? Return value: the label identifying the chosen record. a
(a: 7.74, b: 6.51)

I = NS(=O)(=O)c1ccc(NS(=O)(=O)C(F)(F)C(F)(F)C(F)(F)C(F)(F)F)c(F)c1
II = Cc1cc(C)[n+](CC(=O)Nc2ccc(S(N)(=O)=O)cc2Cl)c(C)c1
Which entry shows the lesser value of pKi here, I or II ? Answer by quoting the chosen item's label. I
(I: 6.70, II: 7.15)

* * *

pKi: −log10 of the molar value.
Listing of pKi toward Carbonic anhydrase 4 (Bos taurus, UniProt Q95323), each taken from a published source.
PARAMETER: pKi

Item: `Nc1c(F)cc(S(N)(=O)=O)cc1Cl` Test system: Carbonic anhydrase 4 (Bos taurus, UniProt Q95323) Read-out: pKi Value: ? 7.02

Again, but for `NCCCC(=O)Nc1nnc(S(N)(=O)=O)s1` 7.37

What about this compound? `NS(=O)(=O)c1ccc(CNC(=O)c2c(F)c(F)c(F)c(F)c2F)cc1` 6.46

A = COc1ccc(S(=O)(=O)N(Cc2ccccc2)C(C(=O)NO)C(C)C)cc1 (stereo unspecified)
B = CC(C)c1cc(-c2ccccc2)cc(C(C)C)[n+]1CC(=O)Nc1ccc(S(N)(=O)=O)cc1Cl
C = NS(=O)(=O)c1ccc(NS(=O)(=O)c2ccc([N+](=O)[O-])cc2)cc1
Kindly order the items shown according to pKi, from the highest value down. Form entry: labels listed in requested order. C, B, A
(C: 7.66, B: 7.25, A: 6.73)

I = NCC(=O)NCC(=O)Nc1c(S(N)(=O)=O)cc(S(N)(=O)=O)c(Cl)c1Cl
II = NS(=O)(=O)c1nnc(NS(=O)(=O)c2ccc(NS(=O)(=O)C(F)(F)C(F)(F)C(F)(F)C(F)(F)C(F)(F)C(F)(F)C(F)(F)C(F)(F)F)cc2)s1
Task for the reader: decide whether I or II has the larger pKi. Give the label of your selection. II
(II: 7.68, I: 7.25)

I = Cc1cc(-c2ccccc2)cc(C)[n+]1CC(=O)Nc1ccc(S(N)(=O)=O)cc1Cl
II = C[C@H](CCC(=O)NCc1ccc(S(N)(=O)=O)cc1)[C@H]1CC[C@H]2[C@@H]3CC[C@@H]4C[C@H](O)CC[C@]4(C)[C@H]3CC[C@]12C
Returns: the argument ( I or II ) having the larger pKi. Refer to your chosen entry by its label in the reply. I

I = NS(=O)(=O)c1nc2ccc(OC(=O)CN(CCN(CC(=O)O)c3ccccc3O)c3ccccc3O)cc2s1
II = CCN(CC)CCNC(=O)c1cccc(S(=O)(=O)/N=c2/sc(S(N)(=O)=O)nn2C)c1
Lowest pKi? choose I or II Kindly state the label of the option you pick. I

P = NS(=O)(=O)c1nnc(NS(=O)(=O)c2cccc(C(=O)O)c2)s1
Q = NS(=O)(=O)c1ccc(NNC(=O)CNCC(=O)O)cc1
Which shows the larger pKi value: P or Q ? Answer format: the label of the selected item. P

a = CN(CC(=O)Nc1ccc2nc(S(N)(=O)=O)sc2c1)C(=N)N
b = NS(=O)(=O)c1ccc(NS(=O)(=O)C(F)(F)C(F)(F)C(F)(F)C(F)(F)F)c(Br)c1
c = C[C@H](CCC(=O)NCCc1ccc(S(N)(=O)=O)cc1)[C@H]1CC[C@H]2[C@@H]3CC[C@@H]4C[C@H](O)CC[C@]4(C)[C@H]3C[C@H](O)[C@]12C
Order by pKi, ascending. To answer, arrange all of the labels according to the requested order. b, c, a
(b: 6.05, c: 6.61, a: 7.92)

P = NS(=O)(=O)c1ccc(NS(=O)(=O)C(F)(F)C(F)(F)C(F)(F)C(F)(F)F)c(I)c1
Q = Cc1cc(C)[n+](CCc2ccc(S(N)(=O)=O)cc2)c(C)c1C
R = NS(=O)(=O)c1nc2ccc(NC(=O)c3c(F)c(F)c(F)c(F)c3F)cc2s1
S = CCc1cc(-c2ccccc2)cc(CC)[n+]1CC(=O)NCCc1ccc(S(N)(=O)=O)cc1
Write the entries in order, lowest recorded pKi first. Record the ranking as a list of labels in the requested order. P, S, Q, R

1 = NS(=O)(=O)c1nc2ccc(OCCOC(=O)CNCC(=O)O)cc2s1
2 = NS(=O)(=O)c1ccc(NS(=O)(=O)c2c(F)c(F)c(F)c(F)c2F)c(Cl)c1
3 = NS(=O)(=O)c1ccc(NC(=O)CN(CCOCCOCCN(CC(=O)O)CC(=O)O)CC(=O)O)c(Cl)c1
4 = NS(=O)(=O)c1ccc(NS(=O)(=O)C(F)(F)F)c(Cl)c1
Rank the items in ascending order with respect to pKi. API: response body holds the labels in the requested order. 4, 2, 3, 1
(4: 4.38, 2: 6.27, 3: 7.52, 1: 7.92)
